molecular target: Na^+ canal site 2 binding site; assay: Affinity for the "Na^+ canal site 2" binding site; conditions: tests typically at a test concentration of 10 μM
READOUT_TYPE: Ki (µM)

>>> df
                     chemical_structure  readout_type  numeric_result
0  CN(C)CCOc1ccccc1-c1cnnc(-c2ccccc2)n1            Ki             2.4
1  CN(C)CCOc1ccccc1-c1ccnc(-c2ccccc2)n1            Ki               4
2  CN(C)CCOc1ccccc1-c1ncnc(-c2ccccc2)n1            Ki             2.8
